All figures here come from patent US20240059769A1.

Measured IC50 TARC by item
Biological target: human TSLP (human, UniProt Q969D9 29-159)
Assay: cell-based or functional assay
Express it in nM; write the number only.

// known answers, use as guide
[
  {
    "binder": "BDG38.116 (antibody, V domains shown, IgG1) VH: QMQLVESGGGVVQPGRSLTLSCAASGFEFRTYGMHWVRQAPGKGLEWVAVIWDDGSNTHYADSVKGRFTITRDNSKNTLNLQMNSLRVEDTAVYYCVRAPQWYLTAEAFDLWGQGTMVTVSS VL: SYVLTQPPSVSVAPGQTATITCGGNLIGARLVHWYQQKPGQAPVLVIYDDSDRPSRIPERFSGSNIGNTATLTIERVEAGDEADYYCQVWDYYSDTMVFGGGTKLTVL",
    "measured number": 59.4
  },
  {
    "binder": "BDG38.135 (antibody, V domains shown) VH: QMQLVESGGGVVQPGQSLRLSCAASGFAFRTYGMHWVRQAPGKGLEWLAVIWYDGSNTHYADSVKGRFTITRDNSKNTLNLQMNSLRAEDTAVYYCVRAPQWYNSAEAFDLWGQGTMVTVSS VL: SYVLTQPPSVSVAPGQTARITCGGNLIGARLVHWYQQKPGQAPVLVVYDDSDRPSHIPERFSGSNSGNTATLTISRVEAGDEADYYCQVWDHSADTMVFGGGTKLTVL",
    "measured number": 0.804
  }
]

Please look up its IC50 TARC: BDG38.083 (antibody, V domains shown, IgG1) VH: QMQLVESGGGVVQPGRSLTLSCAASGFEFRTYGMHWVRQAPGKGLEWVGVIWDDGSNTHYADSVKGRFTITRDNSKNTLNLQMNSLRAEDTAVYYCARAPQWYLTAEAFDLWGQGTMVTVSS VL: SYILTQPPSVSVAPGQTATITCGGNLIGAKLVHWYQQKPGQAPVLVIYDDSDRPSRIPERFSGSNIGNTATLTISDVEEGDEADYYCQVWDYSSDTMVFGGGTKLTVL
11.4

Could you share which IC50 TARC value was measured for BDG38.077 (antibody, V domains shown, IgG1) VH: QMQLVESGGGVVQPGRSLTLSCAASGFAFRTYGMHWVRQAPGKGLEWVGVIWYDGSATHYADSVKGRFTITRDNSKNTLNLQMNSLRAEDTAVYYCVRAPQWYLTAEAFDLWGQGTMVTVSS VL: SYVLTQPPSVSVAPGETATITCGGALIGSRLVHWYQQKPGQAPVLVIYDDSDRPSRIPERFSGSNIGNTATLTISDVEAGDEADYYCQVWDHSSNTYVFGGGTKLTVL ?
2.47

What IC50 TARC value was documented for this binder, BDG38.132 (antibody, V domains shown, IgG1) VH: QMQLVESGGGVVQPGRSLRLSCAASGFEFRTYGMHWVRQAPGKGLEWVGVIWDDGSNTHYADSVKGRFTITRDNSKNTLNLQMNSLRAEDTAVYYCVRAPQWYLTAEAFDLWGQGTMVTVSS VL: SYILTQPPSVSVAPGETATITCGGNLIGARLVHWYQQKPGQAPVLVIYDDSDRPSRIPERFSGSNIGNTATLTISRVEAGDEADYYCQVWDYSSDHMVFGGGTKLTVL ?
22.4

So what's the measured IC50 TARC for this one? BDG38.090 (antibody, V domains shown, IgG1) VH: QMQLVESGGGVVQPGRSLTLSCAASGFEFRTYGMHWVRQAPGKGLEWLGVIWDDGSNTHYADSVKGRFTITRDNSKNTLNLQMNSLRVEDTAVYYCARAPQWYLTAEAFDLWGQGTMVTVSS VL: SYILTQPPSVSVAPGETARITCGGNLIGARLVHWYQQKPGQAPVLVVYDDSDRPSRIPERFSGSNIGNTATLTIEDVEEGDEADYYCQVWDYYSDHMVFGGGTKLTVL
0.00756

Query (binder): BDG38.092 (antibody, V domains shown, IgG1) VH: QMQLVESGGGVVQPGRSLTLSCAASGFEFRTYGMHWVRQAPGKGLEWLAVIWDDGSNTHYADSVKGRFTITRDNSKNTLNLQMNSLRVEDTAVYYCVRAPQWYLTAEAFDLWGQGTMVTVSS VL: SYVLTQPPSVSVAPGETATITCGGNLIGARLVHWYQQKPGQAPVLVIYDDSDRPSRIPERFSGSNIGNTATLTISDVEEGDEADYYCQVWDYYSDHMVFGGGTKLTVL ; field requested: IC50 TARC
5.88
